Biological target: Gastrin/cholecystokinin type B receptor (Homo sapiens)
Sequence (P32239 whole entry): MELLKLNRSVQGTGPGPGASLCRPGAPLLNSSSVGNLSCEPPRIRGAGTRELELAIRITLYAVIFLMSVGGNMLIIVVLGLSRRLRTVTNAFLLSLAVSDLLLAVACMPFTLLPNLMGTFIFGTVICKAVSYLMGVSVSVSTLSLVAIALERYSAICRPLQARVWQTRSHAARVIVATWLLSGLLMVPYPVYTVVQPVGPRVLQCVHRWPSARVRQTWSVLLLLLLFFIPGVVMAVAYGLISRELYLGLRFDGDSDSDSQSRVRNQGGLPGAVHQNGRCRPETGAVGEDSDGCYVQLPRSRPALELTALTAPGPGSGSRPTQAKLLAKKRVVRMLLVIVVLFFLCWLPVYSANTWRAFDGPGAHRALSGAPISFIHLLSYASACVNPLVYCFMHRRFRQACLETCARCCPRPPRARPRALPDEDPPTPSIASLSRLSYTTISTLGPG
Experiment: Displacement of [125I]CCK8S from human CCK2R
measured_quantity: Ki (µM)

1. Cc1nc2cccc(S(=O)(=O)Nc3cc(Br)ccc3C(=O)N3CCCCC3)c2s1
2. Cn1nc2cccc(S(=O)(=O)Nc3cc(Br)ccc3C(=O)N3CCCCC3)c2n1
3. O=C(c1ccc(Br)cc1NS(=O)(=O)c1cccc2[nH]cnc12)N1CCCCC1
4. O=C(c1ccc(Br)cc1NS(=O)(=O)c1ccc2ncsc2c1)N1CCCCC1
Order the entries above from lowest to highest Ki. Give me the labels in the order the question wants.
2, 3, 4, 1
